Ref: PubChem BioAssay AID431

Would you mind telling me the reported cytotoxicity of each entry?
test: viability loss of HPDE-C7K cells – cell-based, fluorescence, HTS, primary screen (AID 431); details: HPDE-C7K KRASV12 cells, Alamar Blue viability, 48 h; at 10 µM; stronger effect = higher value;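 note: 0% = DMSO solvent wells and 100% = doxorubicin-treated wells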
The whole screen tested about 63,000 compounds, of which about 1,100 (1.7%) were called active. This excerpt belongs to a sample that is enriched for actives. Results with a measured potency or affinity are listed apart.
Numbers only, in %.

Some compounds with known cytotoxicity results, for comparison:
compound: Cc1ccc(-c2cc(-c3cccc(F)c3)n[nH]2)c(O)c1
unit_text: %
cytotoxicity: 10.8

compound: CCN1C(=O)c2cccc3c(S(=O)(=O)Nc4ccccc4OC)ccc1c23
unit_text: %
cytotoxicity: 15.9

compound: CCn1c2ccccc2c2cc(NC(=O)c3ccco3)ccc21
unit_text: %
cytotoxicity: 66.2

compound: COc1ccc(C/C(O)=C(\C#N)c2nc3ccccc3s2)cc1
unit_text: %
cytotoxicity: 46.6

compound: CCOc1ccc(OCc2ccc(C(=O)O)o2)cc1
unit_text: %
cytotoxicity: -2.9

compound: CC(=O)Nc1cccc(NC(=O)c2ccco2)c1
unit_text: %
cytotoxicity: -14

compound: Cc1ccc(-c2cc(-c3ccccc3Cl)[nH]n2)c(O)c1
unit_text: %
cytotoxicity: 59.5

compound: CC(C)=C(C#N)c1nc2ccccc2s1
unit_text: %
cytotoxicity: -11.4

// batch mode: one cytotoxicity value per listed entry
1. COc1ccc(NC(=O)CSc2nnc(-c3ccccc3C)n2N)cc1OC
2. CCOC(=O)Cn1c(=O)n(C2CCCC2)c(=O)c2ccccc21
3. O=C(Nc1cnn(Cc2ccc(F)cc2)c1)c1cc2nc(-c3ccco3)cc(C(F)(F)F)n2n1
4. COC(=O)c1ccc2c(=O)n(CCCCCC(=O)NCc3ccccn3)c(=O)[nH]c2c1
5. N#Cc1c(NCCO)nc(NCc2ccccc2)c2c1CCN(Cc1ccccc1)C2
6. N#C/C(=C(/O)CN1CCOCC1)c1nc2ccccc2s1
7. COc1ccc(Br)cc1C(=O)Nc1cccc(NC(=O)c2ccco2)c1
8. COc1ccc(NC(=O)CN2CCN(S(=O)(=O)c3ccc(C(C)C)cc3)CC2)cc1OC

Ans:
1: -2.1; 2: -5.4; 3: 48.5; 4: 2.9; 5: 40.8; 6: 3; 7: 0.2; 8: -1.5

Take each entry in turn and give its cytotoxicity.
1. CC(=O)N1CCc2cc(S(=O)(=O)NC(CC(C)C)C(=O)Nc3ccc4c(c3)OCCO4)ccc21 (configuration not stated)
2. Cc1ccccc1Cn1cc(NC(=O)c2cc3nc(-c4ccco4)cc(C(F)(F)F)n3n2)cn1
3. COc1ccccc1-c1cc(-c2cc(Cl)ccc2O)n[nH]1
4. O=C1CC(SCc2nc3ccccc3[nH]2)C(=O)N1c1cccc(F)c1 (configuration not stated)
5. N#Cc1c2n(cnc1=O)CCCCC2
6. Oc1ccccc1-c1cc(-c2ccccc2Cl)[nH]n1
7. O=C(Nc1ccc(Nc2ccccc2)cc1)c1ccc(Br)o1
8. N#C/C(=C(\O)c1ccco1)c1ccccn1

Ans:
1: 7.7; 2: 30.9; 3: -3.1; 4: -0.8; 5: 0; 6: 15.9; 7: 93; 8: -1.4

Could you tell me cytotoxicity for each of these compounds? They are listed below.
1. CC1CCCN(C(=O)Cn2nnc(-c3cccnc3)n2)C1 (configuration not stated)
2. Cn1c(=O)n(-c2ccccc2)c(=O)c2c3c(sc21)COC(C)(C)C3
3. Cc1ccccc1-c1cc(-c2ccccc2O)n[nH]1
4. O=C(c1ccc(CN2CCc3ccccc3C2)cc1)N1CCCCC1
5. O=C(CSc1nc(-c2ccc(F)cc2)cs1)NC(=O)NCc1ccco1

Ans:
1: 1; 2: -13.9; 3: 44; 4: -21.9; 5: 1

For every item in the list below, what is its measured cytotoxicity?
1. O=C(Nc1cccc(NC(=O)c2ccc(-c3cccc(Br)c3)o2)c1)c1ccco1
2. CCCc1cc(=O)n2[nH]c(-c3cc(OC)c(OC)c(OC)c3)nc2n1

Ans:
1: 66.3; 2: -9.7

For each entry beneath this line, provide reported cytotoxicity.
1. N#CC1=C(N)C(C#N)(C#N)C2(C(=O)Nc3ccccc32)C2CCCC=C12 (configuration not stated)
2. COc1ccc(-n2nnc3c(=O)n(CC(=O)NCC4CCCO4)cnc32)cc1 (configuration not stated)
3. COCCSc1nnc(NC(=O)CSCc2ccccc2)s1
4. O=S(=O)(Nc1nc2ccccc2nc1NCc1ccco1)c1ccc(Cl)cc1

Ans:
1. -18.9
2. -5
3. 16.5
4. 20.9

Give cytotoxicity for all compounds that follow.
1. COC(=O)c1ccccc1NC(=O)CSc1nnnn1C1CCCCC1
2. Cc1noc(C)c1CSc1nc2ccccc2nc1NS(=O)(=O)c1ccc(Cl)cc1
3. C=CCNc1nc(NCc2ccccc2)c(C#N)c2c1CN(C)CC2
4. Cc1noc(C)c1CSc1ncnc2ccccc12
5. O=C(O)CCC(=O)Nc1nnc(C(F)(F)F)s1

Ans:
1: 0.6; 2: 64.6; 3: 19.2; 4: 18.6; 5: -6.4

Give cytotoxicity for each of the items listed below.
1. Cc1ccc(SC/C(O)=C(\C#N)c2nc3ccccc3s2)cc1
2. O=C(CN1C(=O)CCS(=O)(=O)c2ccccc21)Nc1cccc(Cl)c1

Ans:
79.7
2.5

* * *

assay: viability loss of HPDE-C7K cells – cell-based, fluorescence, HTS, primary screen (AID 431); conditions: HPDE-C7K KRASV12 cells, Alamar Blue viability, 48 h; at 10 µM; stronger effect = higher value;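 note: 0% = DMSO solvent wells and 100% = doxorubicin-treated wells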
The whole screen tested about 63,000 compounds, of which about 1,100 (1.7%) were called active. This excerpt belongs to a sample that is enriched for actives. Results with a measured potency or affinity are listed apart.
Please provide measured cytotoxicity for the entries that follow.

Previously resolved entries follow.
compound: CC(C)(C)c1ccc(C(=O)N2CCC(C(=O)NCC3CCCO3)CC2)cc1 (centres undefined)
result: -1.9% (inactive)

compound: Cc1ccc2c(c1)[nH]c1c(N3CCN(Cc4ccc5c(c4)OCO5)CC3)ncnc12
result: 9.5% (inactive)

compound: O=C(O)Cn1cnc2scc(-c3cccs3)c2c1=O
result: 6.1% (inactive)

As a next step, examine the compound that follows.
Q: What measured cytotoxicity goes with `CN1CCN(c2ncnc3c2[nH]c2ccc(F)cc23)CC1` ?
Ans: 5.5% (inactive)

* * *

Kindly state cytotoxicity for each of the entries shown.
assay: viability loss of HPDE-C7K cells – cell-based, fluorescence, HTS, primary screen (AID 431); settings: HPDE-C7K KRASV12 cells, Alamar Blue viability, 48 h; at 10 µM; stronger effect = higher value;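 note: 0% = DMSO solvent wells and 100% = doxorubicin-treated wells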
The campaign covered roughly 63,000 compounds. About 1,100 (1.7%) were called active. What follows is part of a selection rich in actives, with near analogues and random picks from the rest. Entries with a potency or affinity are not part of this list.
Answers are plain numbers, in %.

# example entries with known answers
compound: COc1ccc(CCNc2nnc(Sc3nnnn3-c3ccccc3)s2)cc1OC
unit_text: %
cytotoxicity: 68.8

compound: Cc1noc(C)c1S(=O)(=O)N(CC(=O)Nc1ccc2c(c1)OCO2)c1ccc(C(C)C)cc1
unit_text: %
cytotoxicity: -3.1

compound: Cc1cccc(N2CCN(c3cccc(C)c3)C2c2cccnc2)c1
unit_text: %
cytotoxicity: 53.7

List reported cytotoxicity for each of these compounds:
1. CCOC(=O)c1[nH]c2ccc(OCC)cc2c1NC(=O)CN1CCN(c2ccccc2)CC1
2. Cc1cccc(N2CCN(C(=O)c3ccncc3)CC2C)c1 (centres undefined)
3. COc1ccc(-n2c(Cc3cccn3C)nnc2SCC(=O)Nc2ccc(Cl)cc2)cc1
4. CCSc1nnc([C@@H]2CCCN2C(=O)OC(C)(C)C)o1
5. CCCSc1nnc(Sc2nnnn2-c2ccccc2)s1

Ans:
1. 7.4
2. 7.3
3. 48.9
4. -8.4
5. 88.2

* * *

test: viability loss of HPDE-C7K cells – cell-based, fluorescence, HTS, primary screen (AID 431); conditions: HPDE-C7K KRASV12 cells, Alamar Blue viability, 48 h; at 10 µM; stronger effect = higher value;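 note: 0% = DMSO solvent wells and 100% = doxorubicin-treated wells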
Screen size: about 63,000 compounds; about 1,100 (1.7%) were called active. Shown is part of a subset that was picked to be rich in actives. Potency and affinity values are given separately.
measure_name: cytotoxicity (%)
Answers are plain numbers, in %.

In the examples that follow, each entry is paired with its recorded cytotoxicity.
compound: O=S(=O)(c1ccc2ccccc2c1)N1CCCCC1
quantitative_result: 5.8
//
compound: Oc1ccccc1Nc1nc(NCC2CCCO2)c2ccccc2n1 (stereo not drawn)
quantitative_result: 12.1
//
compound: COc1ccccc1-c1nnc(NC(=O)c2ccc(S(=O)(=O)N(C)Cc3ccccc3)cc2)o1
quantitative_result: 64.9
//
compound: COCc1nnc(NC(=O)c2ccc(S(=O)(=O)N(C)c3ccccc3)cc2)o1
quantitative_result: 36.3
//
compound: CC(=O)C1=C(O)C(=O)N(CCN(C)C)C1c1ccc(Cl)cc1 (stereo not drawn)
quantitative_result: 1
//
compound: c1ccc(-c2nc(NCc3ccco3)c3ccccc3n2)nc1
quantitative_result: 20
//
compound: COc1cc2ccccc2cc1C(=O)Nc1ccc(N2CCN(C)CC2)cc1
quantitative_result: 65.5
//
compound: CCOc1ccc(-c2nnn(CC(=O)Nc3ccccc3OC)n2)cc1OCC
quantitative_result: -3.2

Fill in cytotoxicity for each of the 2 compounds listed.
1. N#C/C(Cn1c[n+](NC(=O)Nc2ccccc2)cn1)=N/O
2. O=S(=O)(c1ccc2ccccc2c1)N(CC(O)CN1CCOCC1)c1ccccc1 (stereo not drawn)

Ans:
1. -6.9
2. -11.1

I would be grateful if you could provide cytotoxicity for each of the following entries.
1. CCN(Cc1ccccc1)S(=O)(=O)c1ccc(C(=O)Nc2nnc(-c3ccccc3OC)o2)cc1
2. O=C(NCc1cccs1)c1noc2c1CCCC2
3. CCOc1ccc(-c2nnn(CC(=O)Nc3cc(OC)ccc3OC)n2)cc1OCC
4. CN(c1ccccc1)S(=O)(=O)c1ccc(C(=O)Nc2nnc(-c3ccc(F)cc3)o2)cc1
5. COc1cc(NS(=O)(=O)c2ccc(NC(=O)C3CCCO3)cc2)nc(OC)n1 (stereo not drawn)
6. Oc1ccccc1-c1nc(NCC2CCCO2)c2ccccc2n1 (stereo not drawn)
7. CN1CCN(c2ccc(NC(=O)c3ccccc3Br)cc2)CC1
8. CCC(C)NC(=O)CN(c1ccc2c(c1)OCO2)S(=O)(=O)c1c(C)n[nH]c1C (stereo not drawn)

Ans:
1. 37.9
2. 5.2
3. 70.6
4. 62.8
5. -15.8
6. 50.1
7. 2.5
8. 3.1
